Tested on: Proteus mirabilis (ATCC 7002)
Test: Antimicrobial kill (microdilution) assay, MIC/MBC by CFU count
Format: cell-based
Details: lowest concentration that inhibits the growth of 90% of the inoculation; 3 hours, 0.1×PBS
Marks after values point to notes of the source that are not given here. Primed or numbered codes have the meaning given here. No end group written: not given here. *: point of attachment. His tag″ = six-residue histidine tag (His-tag) at the NH2-terminus, N[C@@H](Cc1c[nH]cn1)C(=O)N[C@@H](Cc1c[nH]cn1)C(=O)N[C@@H](Cc1c[nH]cn1)C(=O)N[C@@H](Cc1c[nH]cn1)C(=O)N[C@@H](Cc1c[nH]cn1)C(=O)N[C@@H](Cc1c[nH]cn1)C(=O)*; His tag = six-residue histidine tag at the N-terminus, N[C@@H](Cc1c[nH]cn1)C(=O)N[C@@H](Cc1c[nH]cn1)C(=O)N[C@@H](Cc1c[nH]cn1)C(=O)N[C@@H](Cc1c[nH]cn1)C(=O)N[C@@H](Cc1c[nH]cn1)C(=O)N[C@@H](Cc1c[nH]cn1)C(=O)*
measurement_type: P. mirabilis MIC

substance="F:1-45: recombinant N-terminal RNase 7 fragment, amino acids 1 to 45 (SEQ ID NO: 2), N-terminal His tag ({His tag″}-KPKGMTSSQWFKIQHMQPSPQACNSAMKNINKHTKRCKDLNTFLH; ends and bridges not checked; listed as Homo sapiens)" measurement_type="P. mirabilis MIC" measurement=">7** uM"
substance="F:72-128: recombinant C-terminal RNase 7 fragment, amino acids 72 to 128, N-terminal His tag ({His tag}-SHGPVSLTMCKLTSGKYPNCRYKEKRQNKSYVVACKPPQKKDSQQFHLVPVHLDRVL; ends and bridges not checked)" measurement_type="P. mirabilis MIC" measurement=">3.5** uM"
substance="F:84-128: recombinant C-terminal RNase 7 fragment, amino acids 84 to 128, N-terminal His tag ({His tag}-TSGKYPNCRYKEKRQNKSYVVACKPPQKKDSQQFHLVPVHLDRVL; cysteine pairing not given here)" measurement_type="P. mirabilis MIC" measurement=">3.5** uM"
substance="F:46-97: recombinant middle RNase 7 fragment, amino acids 46 to 97, beta sheets 2-4, N-terminal His tag ({His tag}-EPFSSVAATCQTPKIACKNGDKNCHQSHGPVSLTMCKLTSGKYPNCRYKEKR; ends and bridges not checked)" measurement_type="P. mirabilis MIC" measurement="3.5 µM"
